Procedure Text: Particle size and PDI of hand-mixed mRNA or DNA LNPs
Format: physicochemical
Condition Context: hand-mixed mRNA LNPs: compound/DOPE/Cholesterol/DMG-PEG2000 41.44/45.85/10/2.7, lipid:RNA 40:1
PDI RNA overview

| Compound | PDI RNA |
| --- | --- |
| CC(C)C(CCC1CCC(C(=O)OCCCCCCCCCCCCOC(=O)C2CCC(CCC(SCCN(C)C)C(C)C)C(SCCN(C)C)C2)CC1SCCN(C)C)SCCN(C)C (centres unmarked) | 0.208 |
| CC(C)C(CCC1CCC(C(=O)OCCCCCCSCCCCCCCCSCCCCCCOC(=O)C2CCC(CCC(SCCN(C)C)C(C)C)C(SCCN(C)C)C2)CC1SCCN(C)C)SCCN(C)C (centres unmarked) | 0.273 |
| CC(C)C(CCC(C)C(CCC1CCC(C(=O)OCCCCCCCCCCCCOC(=O)C2CCC(CCC(SCCN(C)C)C(C)CCC(SCCN(C)C)C(C)C)C(SCCN(C)C)C2)CC1SCCN(C)C)SCCN(C)C)SCCN(C)C (centres unmarked) | 0.156 |
| CC(C)C(CCC(C)C(CCC1CCC(C(=O)OCCCCCCCCCCCCCCCCCCCCOC(=O)C2CCC(CCC(SCCN(C)C)C(C)CCC(SCCN(C)C)C(C)C)C(SCCN(C)C)C2)CC1SCCN(C)C)SCCN(C)C)SCCN(C)C (centres unmarked) | 0.216 |
| CC(C)C(CCC(C)C(CCC1CCC(C(=O)OCCCCCCSCCCCCCCCSCCCCCCOC(=O)C2CCC(CCC(SCCN(C)C)C(C)CCC(SCCN(C)C)C(C)C)C(SCCN(C)C)C2)CC1SCCN(C)C)SCCN(C)C)SCCN(C)C (centres unmarked) | 0.211 |
| CC(C)C(CCC(C)C(CCC1CCC(C(=O)OCCCCCCOC(=O)C2CCC(CCC(SCCN(C)C)C(C)CCC(SCCN(C)C)C(C)C)C(SCCN(C)C)C2)CC1SCCN(C)C)SCCN(C)C)SCCN(C)C (centres unmarked) | 0.120 |
| CC(C)C(CCC1CCC(C(=O)OCCCCCCCCCCCCCCCCCCCCOC(=O)C2CCC(CCC(SCCN(C)C)C(C)C)C(SCCN(C)C)C2)CC1SCCN(C)C)SCCN(C)C (centres unmarked) | 0.327 |
| CC(C)C(CCC1CCC(C(=O)OCCCCCCOC(=O)C2CCC(CCC(SCCN(C)C)C(C)C)C(SCCN(C)C)C2)CC1SCCN(C)C)SCCN(C)C (centres unmarked) | 0.249 |

====

Procedure Text: Particle size and PDI of hand-mixed mRNA or DNA LNPs
Format: physicochemical
Condition Context: hand-mixed DNA LNPs: compound/DOPE/Cholesterol/DMG-PEG2000 38/50/10.0/2.0, lipid:DNA 45:1
Binarize Particle Size (nm) DNA at 300 nm; below is met, at or above is not met.

| Compound | Label |
| --- | --- |
| CC(C)C(CCC(C)C(CCC1CCC(C(=O)OCCCCCCCCCCCCOC(=O)C2CCC(CCC(SCCN(C)C)C(C)CCC(SCCN(C)C)C(C)C)C(SCCN(C)C)C2)CC1SCCN(C)C)SCCN(C)C)SCCN(C)C (centres unmarked) [Compound 11] | not met |
| CC(C)C(CCC1CCC(C(=O)OCCCCCCCCCCCCOC(=O)C2CCC(CCC(SCCN(C)C)C(C)C)C(SCCN(C)C)C2)CC1SCCN(C)C)SCCN(C)C (centres unmarked) [Compound 15] | not met |
| CC(C)C(CCC(C)C(CCC1CCC(C(=O)OCCCCCCSCCCCCCCCSCCCCCCOC(=O)C2CCC(CCC(SCCN(C)C)C(C)CCC(SCCN(C)C)C(C)C)C(SCCN(C)C)C2)CC1SCCN(C)C)SCCN(C)C)SCCN(C)C (centres unmarked) [Compound 20] | met |
| CC(C)C(CCC1CCC(C(=O)OCCCCCCOC(=O)C2CCC(CCC(SCCN(C)C)C(C)C)C(SCCN(C)C)C2)CC1SCCN(C)C)SCCN(C)C (centres unmarked) [Compound 14] | not met |
